Tested on: HT22 cells
method summary: Glutamate-induced neural oxidative stress injury model in HT22 cells, survival by MTT
Type: cell-based, Mouse
condition parameters: 5 mM glutamate added with compound at 1, 10, 50 or 100 μM, MTT after 24 h
Protocol: Mouse Hippocampal neuron cell line HT22, 24-well culture plate (Corning), glutamic acid (Glutamate, Sigma), DMEM culture medium (GIBCO), fetal bovine serum (GIBCO), 3-(4,5-dimethylthiazol-2-yl)-2,5-diphenyltetrazolium bromide (MTT, Sigma), dimethyl sulfoxide (Sinopharm Group. Co. Ltd.), and microplate reader (TECAN). 2.1. […] 2.2. […] The viability of the cells was detected by MTT method 24 h after the treatment. 2.3. […] All data were expressed as mean±standard deviation (SD). […]
metric: Concentration range for protection

smiles code: Fc1ccc(-c2cc(=S)ss2)cc1
assay target: HT22 cells
Concentration range for protection: 10 to 100 µM
//
smiles code: S=c1cc(-c2ccc3ccccc3c2)ss1
assay target: HT22 cells
Concentration range for protection: 1 to 100 µM
//
smiles code: O=C(Oc1ccc(-c2cc(=S)ss2)cc1)c1cccnc1
assay target: HT22 cells
Concentration range for protection: 50 to 100 µM
//
smiles code: Fc1cc(-c2cc(=S)ss2)c(Cl)cc1Cl
assay target: HT22 cells
Concentration range for protection: 1 to 100 µM
//
smiles code: Cc1ccc(-c2cc(=S)ss2)cc1
assay target: HT22 cells
Concentration range for protection: 10 to 100 µM
//
smiles code: COc1ccc(-c2cc(=S)ss2)cc1
assay target: HT22 cells
Concentration range for protection: 10 to 100 µM
//
smiles code: S=c1cc(-c2ccccc2)ss1
assay target: HT22 cells
Concentration range for protection: 1 to 100 µM
//
smiles code: Oc1ccc(-c2cc(=S)ss2)cc1
assay target: HT22 cells
Concentration range for protection: 10 to 100 µM

Task item: Sample S=c1cc(-c2cccs2)ss1 — what was its Concentration range for protection?
Reply: 10 to 100 µM

Task item: Next compound up: S=c1cc(-c2ccc3c(c2)OCO3)ss1
Reply: 1 to 100 µM

Task item: Next compound up: COc1ccc(-c2cc(=S)ss2)c(OC)c1
Reply: 1 to 100 µM
